test system: P388 mouse leukemia cells; details: 92 h
Where a SMILES comes first, the peptide text is derived from it. [ ]: non-standard residue; d: D form. The star is where a group is joined. NHCH2CH2OH = OCCN*; For = O=C*
For each of the compounds below, state its cell viability/%.
Could you give me the number in %? Just the number is fine.

Value of cell viability/% reported for the compound CC(C)C[C@@H](NC(=O)[C@H](C)NC(=O)CNC(=O)[C@@H](NC=O)C(C)C)C(=O)N[C@@H](C)C(=O)N[C@@H](C(=O)N[C@H](C(=O)N[C@H](CC(C)C)C(=O)N[C@@H](Cc1c[nH]c2ccccc12)C(=O)N[C@@H](C(=O)N[C@@H](Cc1c[nH]c2ccccc12)C(=O)N[C@@H](C(=O)N[C@@H](Cc1c[nH]c2ccccc12)C(=O)N[C@@H](C(=O)N[C@@H](Cc1c[nH]c2ccccc12)C(=O)NCCO)C(C)C)C(C)C)C(C)C)C(C)C)C(C)C [compound 8796] (For-VGA[dL]A[dV]V[dL]W[dV]W[dV]W[dV]W-NHCH2CH2OH) is 74.1

Value of cell viability/% reported for the compound CC(C)C[C@@H](NC(=O)[C@H](C)NC(=O)CNC(=O)[C@@H](NC=O)C(C)C)C(=O)N[C@@H](C)C(=O)N[C@H](CC(C)C)C(=O)N[C@H](C(=O)N[C@@H](C(=O)N[C@@H](Cc1c[nH]c2ccccc12)C(=O)N[C@@H](C(=O)N[C@@H](Cc1c[nH]c2ccccc12)C(=O)N[C@H](CC(C)C)C(=O)N[C@@H](Cc1c[nH]c2ccccc12)C(=O)N[C@H](CC(C)C)C(=O)N[C@@H](Cc1c[nH]c2ccccc12)C(=O)NCCO)[C@H](C)O)C(C)C)C(C)C [compound 7067] (For-VGA[dL]A[dL]V[dV]W[dT]W[dL]W[dL]W-NHCH2CH2OH) is 100.0

Value of cell viability/% reported for the compound CNC(=O)C[C@@H](NC(=O)[C@@H](NC(=O)[C@@H](CC(C)C)NC(=O)[C@H](C)NC(=O)[C@@H](CC(C)C)NC(=O)[C@H](C)NC(=O)CNC(=O)[C@@H](NC=O)C(C)C)C(C)C)C(=O)N[C@@H](Cc1c[nH]c2ccccc12)C(=O)N[C@@H](C(=O)N[C@@H](Cc1c[nH]c2ccccc12)C(=O)N[C@H](CC(C)C)C(=O)N[C@@H](Cc1c[nH]c2ccccc12)C(=O)N[C@H](CC(C)C)C(=O)N[C@@H](Cc1c[nH]c2ccccc12)C(=O)NCCO)C(C)C [compound 6703] (For-VGA[dL]A[dL]V[dD](NHMe)W[dV]W[dL]W[dL]W-NHCH2CH2OH) is 100.0

Value of cell viability/% reported for the compound CC(C)C[C@@H](NC(=O)[C@H](C)NC(=O)CNC(=O)[C@@H](NC=O)C(C)C)C(=O)N[C@@H](C)C(=O)N[C@H](CC(C)C)C(=O)N[C@H](C(=O)N[C@@H](C(=O)N[C@@H](Cc1c[nH]c2ccccc12)C(=O)N[C@@H](C(=O)N[C@@H](Cc1c[nH]c2ccccc12)C(=O)N[C@H](CC(C)C)C(=O)N[C@@H](Cc1c[nH]c2ccccc12)C(=O)N[C@@H](C(=O)N[C@@H](Cc1c[nH]c2ccccc12)C(=O)NCCO)C(C)C)C(C)C)C(C)C)C(C)C [compound 10456] (For-VGA[dL]A[dL]V[dV]W[dV]W[dL]W[dV]W-NHCH2CH2OH) is 11.8

Value of cell viability/% reported for the compound CNC(=O)C[C@@H](NC(=O)[C@@H](NC(=O)[C@H](NC(=O)[C@H](C)NC(=O)[C@H](NC(=O)[C@H](C)NC(=O)CNC(=O)[C@@H](NC=O)C(C)C)C(C)C)C(C)C)C(C)C)C(=O)N[C@@H](Cc1c[nH]c2ccccc12)C(=O)N[C@H](CC(C)C)C(=O)N[C@@H](Cc1c[nH]c2ccccc12)C(=O)N[C@@H](C(=O)N[C@@H](Cc1c[nH]c2ccccc12)C(=O)N[C@@H](C(=O)N[C@@H](Cc1c[nH]c2ccccc12)C(=O)NCCO)C(C)C)C(C)C [compound 8057] (For-VGA[dV]A[dV]V[dD](NHMe)W[dL]W[dV]W[dV]W-NHCH2CH2OH) is 100.0

Value of cell viability/% reported for the compound CNC(=O)C[C@@H](NC(=O)[C@@H](NC(=O)[C@@H](CC(C)C)NC(=O)[C@H](C)NC(=O)[C@@H](CC(C)C)NC(=O)[C@H](C)NC(=O)CNC(=O)[C@@H](NC=O)C(C)C)C(C)C)C(=O)N[C@@H](Cc1c[nH]c2ccccc12)C(=O)N[C@H](CC(C)C)C(=O)N[C@@H](Cc1c[nH]c2ccccc12)C(=O)N[C@H](CC(C)C)C(=O)N[C@@H](Cc1c[nH]c2ccccc12)C(=O)N[C@@H](C(=O)N[C@@H](Cc1c[nH]c2ccccc12)C(=O)NCCO)[C@H](C)O [compound 8992] (For-VGA[dL]A[dL]V[dD](NHMe)W[dL]W[dL]W[dT]W-NHCH2CH2OH) is 56.1

Value of cell viability/% reported for the compound CC(C)C[C@@H](NC(=O)[C@H](C)NC(=O)[C@H](NC(=O)[C@H](C)NC(=O)CNC(=O)[C@@H](NC=O)C(C)C)C(C)C)C(=O)N[C@H](C(=O)N[C@H](CC(C)C)C(=O)N[C@@H](Cc1c[nH]c2ccccc12)C(=O)N[C@H](CC(C)C)C(=O)N[C@@H](Cc1c[nH]c2ccccc12)C(=O)N[C@H](CC(C)C)C(=O)N[C@@H](Cc1c[nH]c2ccccc12)C(=O)N[C@H](CC(C)C)C(=O)N[C@@H](Cc1c[nH]c2ccccc12)C(=O)NCCO)C(C)C [compound 1343] (For-VGA[dV]A[dL]V[dL]W[dL]W[dL]W[dL]W-NHCH2CH2OH) is 4.0

Value of cell viability/% reported for the compound CC(C)C[C@@H](NC(=O)[C@H](Cc1c[nH]c2ccccc12)NC(=O)[C@H](NC(=O)[C@H](Cc1c[nH]c2ccccc12)NC(=O)[C@@H](CC(C)C)NC(=O)[C@H](Cc1c[nH]c2ccccc12)NC(=O)[C@@H](CC(C)C)NC(=O)[C@@H](NC(=O)[C@H](NC(=O)[C@H](C)NC(=O)[C@H](NC(=O)[C@H](C)NC(=O)CNC(=O)[C@@H](NC=O)C(C)C)C(C)C)C(C)C)C(C)C)[C@H](C)O)C(=O)N[C@@H](Cc1c[nH]c2ccccc12)C(=O)NCCO [compound 457] (For-VGA[dV]A[dV]V[dL]W[dL]W[dT]W[dL]W-NHCH2CH2OH) is 95.8
